Hey, just so you know, these numbers are from ChEMBL document CHEMBL1201862.

- measurement-target: UniProt P24822
- Sequence (P24822 whole entry): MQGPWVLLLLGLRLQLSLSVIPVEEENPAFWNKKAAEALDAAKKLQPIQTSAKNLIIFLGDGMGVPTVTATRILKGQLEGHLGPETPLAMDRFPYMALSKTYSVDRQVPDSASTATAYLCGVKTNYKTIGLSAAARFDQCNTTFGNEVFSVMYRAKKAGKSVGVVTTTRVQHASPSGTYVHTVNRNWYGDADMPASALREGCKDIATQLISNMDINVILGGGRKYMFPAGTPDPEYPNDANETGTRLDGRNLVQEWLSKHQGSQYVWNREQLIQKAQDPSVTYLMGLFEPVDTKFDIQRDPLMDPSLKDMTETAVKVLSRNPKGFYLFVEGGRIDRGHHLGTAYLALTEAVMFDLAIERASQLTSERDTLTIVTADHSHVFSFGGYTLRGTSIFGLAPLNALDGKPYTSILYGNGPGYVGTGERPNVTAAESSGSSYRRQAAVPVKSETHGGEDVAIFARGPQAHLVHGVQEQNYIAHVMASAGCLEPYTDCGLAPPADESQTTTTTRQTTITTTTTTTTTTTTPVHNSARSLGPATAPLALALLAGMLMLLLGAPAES
- procedure-details: PubChem AID 488785
- Format: functional
Active and inactive are the calls of the source. The rule behind the calls is not given here.
A collection of compounds and their measured IC50

compound-string: Cc1ccc(/C=C2\SC(=S)N(/N=C/c3cc([N+](=O)[O-])ccc3O)C2=O)o1
IC50: 61.9 µM (active)
//
compound-string: O=C(O)CCCN1C(=O)/C(=C/C=C/c2ccco2)SC1=S
IC50: 1.4 µM (active)
//
compound-string: CCOc1ccccc1CNC(=O)CCNS(=O)(=O)c1ccc2nc(O)oc2c1
IC50: 2.65 µM (active)
//
compound-string: Cc1ccc(S(=O)(=O)N2CCC(C(=O)Nc3ccc(C(C)C)cc3)CC2)cc1
IC50: 7.81 µM (active)
